Listing of entries alongside the reported solubility.
- protocol_summary: Aqueous solubility at pH 4 by pION method
- Type: physicochemical
- experimental_parameters: aqueous, read-out: solubility
endpoint_label: solubility

INSERT INTO assay_data (line_notation, endpoint_result) VALUES
  ('O=C(O)c1cc(-c2ccc(C34CCN(CC3)CC4)cc2)c2ccc(-c3ccc(C(F)(F)F)cc3)cc2c1', '1.5 to 14.3 µg/mL'),
  ('O=C(O)c1cc(-c2ccc(C34CCN(CC3)CC4)cc2)cc(-n2cc(-c3ccc(C(F)(F)F)cc3)nn2)c1', '2.8 to 14.5 µg/mL');
